target-system: Human α2δ-1 subunit of Cav2.2 calcium channel (Homo sapiens)
Sequence (P54289 25-1103): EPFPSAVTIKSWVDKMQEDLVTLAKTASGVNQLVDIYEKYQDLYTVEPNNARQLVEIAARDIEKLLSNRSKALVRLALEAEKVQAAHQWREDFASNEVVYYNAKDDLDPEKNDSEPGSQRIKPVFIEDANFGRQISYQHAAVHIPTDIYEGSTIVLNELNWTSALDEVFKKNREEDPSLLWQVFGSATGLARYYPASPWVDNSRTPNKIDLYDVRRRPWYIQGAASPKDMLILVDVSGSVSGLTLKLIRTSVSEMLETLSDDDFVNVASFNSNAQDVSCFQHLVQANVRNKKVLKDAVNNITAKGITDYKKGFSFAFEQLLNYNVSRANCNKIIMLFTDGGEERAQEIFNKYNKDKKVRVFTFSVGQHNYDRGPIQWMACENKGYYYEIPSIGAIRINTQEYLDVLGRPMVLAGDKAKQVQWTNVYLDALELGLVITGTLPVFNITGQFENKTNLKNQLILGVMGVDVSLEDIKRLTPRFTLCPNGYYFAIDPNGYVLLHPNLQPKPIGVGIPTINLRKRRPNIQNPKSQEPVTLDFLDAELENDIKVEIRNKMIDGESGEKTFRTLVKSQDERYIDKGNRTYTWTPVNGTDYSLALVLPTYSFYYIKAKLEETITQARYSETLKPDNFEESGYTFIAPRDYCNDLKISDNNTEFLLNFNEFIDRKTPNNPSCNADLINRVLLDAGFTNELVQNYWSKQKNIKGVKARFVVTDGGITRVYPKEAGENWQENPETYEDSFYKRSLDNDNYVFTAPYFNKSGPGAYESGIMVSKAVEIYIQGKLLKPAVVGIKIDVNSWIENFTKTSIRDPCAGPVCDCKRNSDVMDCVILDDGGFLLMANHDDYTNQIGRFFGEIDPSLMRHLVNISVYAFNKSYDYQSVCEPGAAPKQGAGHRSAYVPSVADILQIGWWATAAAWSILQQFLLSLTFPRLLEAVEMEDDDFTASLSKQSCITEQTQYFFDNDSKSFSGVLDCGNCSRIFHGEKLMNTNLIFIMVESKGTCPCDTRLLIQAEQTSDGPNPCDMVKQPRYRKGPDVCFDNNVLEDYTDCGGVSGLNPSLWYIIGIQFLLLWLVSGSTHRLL
test-method-notes: Human α2δ-1 subunit of Cav2.2 calcium channel assay ([3H]-gabapentin binding)
condition-label: binding to the α2δ-1 subunit of voltage-gated calcium channels expressed as Ki; + also covers inhibition between 1% and 50%
Recorded Ki for the following compounds

- compound: "Cc1nn2c(C3CCCN(Cc4ccccc4)C3)ccnc2c1-c1ccncc1 (centres unmarked)"
  measured-attribute: "Ki"
  measured-result: "0.5 to 5 µM"

Prompt: Can you look up the measured Ki of CCc1nn2c(C3CCCN(Cc4ccccc4)C3)ccnc2c1-c1ccncc1 (centres unmarked) for me?
Response: 0.5 to 5 µM

Prompt: Next compound up: Cc1nn2c(C3CCCN(Cc4ccccc4)C3)ccnc2c1N(C)C (centres unmarked)
Response: > 5 µM

Prompt: Next compound up: c1ccc(CN2CCCC(c3ccnc4c(-c5ccncc5)cnn34)C2)cc1 (centres unmarked)
Response: 0.5 to 5 µM

Prompt: Next compound up: CN(C)Cc1cc2nccc(C3CCCN(Cc4ccccc4)C3)n2n1 (centres unmarked)
Response: 0.5 to 5 µM

----------
Measured pKi (Human σ1 receptor (Homo sapiens, UniProt Q99720))
pKi: −log10 of the molar value.

Examples from the recorded data:
- compound: "CCc1cc(-c2c(C)nn3c(C4CCCN(Cc5ccccc5)C4)ccnc23)ccn1 (stereo not shown)"
  target-system: "Human σ1 receptor (Homo sapiens, UniProt Q99720)"
  pKi: "< 6.00"
- compound: "CN[C@H]1CCN(c2cc3nccc([C@H]4CCCN(Cc5ccccc5)C4)n3n2)C1"
  target-system: "Human σ1 receptor (Homo sapiens, UniProt Q99720)"
  pKi: "< 6.00"
- compound: "Cc1nn2c(C3CCCN(Cc4ccc(Cl)cc4)C3)ccnc2c1CN(C)CC1CCOCC1 (stereo not shown)"
  target-system: "Human σ1 receptor (Homo sapiens, UniProt Q99720)"
  pKi: "> 6.30"

Prompt: Can you look up the measured pKi of Cc1ccccc1CN1CCCC(c2ccnc3c(-c4ccncc4)c(C)nn23)C1 (stereo not shown) for me?
Response: < 6.00

----------
target-system: Human α2δ-1 subunit of Cav2.2 calcium channel (Homo sapiens)
test-method-notes: Human α2δ-1 subunit of Cav2.2 calcium channel assay ([3H]-gabapentin binding)
condition-label: binding to the α2δ-1 subunit of voltage-gated calcium channels expressed as Ki; + also covers inhibition between 1% and 50%
pKi: −log10 of the molar value.
measured-attribute: pKi

Prompt: Can you look up the measured pKi of Clc1ccc(CN2CCCC(c3ccnc4cc(Br)nn34)C2)cc1 (stereo not drawn) for me?
Response: < 5.30

Prompt: Next compound up: Cc1nn2c(C3CCCN(Cc4ccc(Cl)cc4)C3)ccnc2c1CN(C)CC1CCOCC1 (stereo not drawn)
Response: 5.30 to 6.30

Prompt: Next compound up: Cc1nn2c(C3CCCN(Cc4ccc(Cl)cc4)C3)ccnc2c1CN(CC1CCOCC1)C(C)C (stereo not drawn)
Response: < 5.30
